TARGET UNDER TEST: HLA-A*02:01 (Homo sapiens, UniProt P04439, D140Y/D185E/D98H/E176V/E277Q/G131W/G231S/I119V/I121R/I166T/I218V/L300P/L318F/N151K/N90K/P208A/P217A/Q86G/Q94H/R138H/R169H/T345S)
EXPERIMENTAL PROTOCOL: MHC binding assay (UV-ligand exchange, ELISA of stabilized MHC complexes)
CONDITION SET: MHC class I binding score; binding to HLA-A*02:01 ranged by peptide exchange yield (UV-ligand exchange, ELISA)
Text: Candidate peptides for T cell based therapies according to the present invention were further tested for their MHC binding capacity (affinity). The individual peptide-MHC complexes were produced by UV-ligand exchange, where a UV-sensitive peptide is cleaved upon UV-irradiation, and exchanged with the peptide of interest as analyzed. Only peptide candidates that can effectively bind and stabilize the peptide-receptive MHC molecules prevent dissociation of the MHC complexes. […]
ATTRIBUTE MEASURED: Peptide exchange

Here are 10 substances together with their reported answers.
354 (LILEGVDTV; listed as Homo sapiens) [compound 354] : ″++″ (≥20% = ++)
464 (ALNDCIYSV; listed as Homo sapiens) [compound 464] : ″+++″ (≥50% = +++)
399 (YLFEPLYHV; listed as Homo sapiens) [compound 399] : ″+++″ (≥50% = +++)
238 (YLISFQTHI; listed as Homo sapiens) [compound 238] : ″+++″ (≥50% = +++)
130 (FLWNGEDSALL; listed as Homo sapiens) [compound 130] : ″+++″ (≥50% = +++)
635 (SLDSTLHAV; listed as Homo sapiens) [compound 635] : ″+++″ (≥50% = +++)
172 (VLYSYTIITV; listed as Homo sapiens) [compound 172] : ″++″ (≥20% = ++)
302 (ALLQEGEVYSA; listed as Homo sapiens) [compound 302] : ″+++″ (≥50% = +++)
382 (ALQNYIKEA; listed as Homo sapiens) [compound 382] : ″++″ (≥20% = ++)
426 (RLADKSVLV; listed as Homo sapiens) [compound 426] : ″+++″ (≥50% = +++)

Request: Look up Peptide exchange: 510 (KLYSVVSQL; listed as Homo sapiens) [compound 510]
Response: ″++″ (≥20% = ++)

Request: Note, next up: 443 (GLWEIENNPTV; listed as Homo sapiens) [compound 443]
Response: ″+++″ (≥50% = +++)

Request: Note, next up: 197 (ALGPEGGRV; listed as Homo sapiens) [compound 197]
Response: ″++″ (≥20% = ++)

Request: Note, next up: 85 (KMSELRVTL; listed as Homo sapiens) [compound 85]
Response: ″+++″ (≥50% = +++)

Request: Note, next up: 341 (SQIALNEKLVNL; listed as Homo sapiens) [compound 341]
Response: ″+++″ (≥50% = +++)

Request: Note, next up: 210 (LLLNAVLTV; listed as Homo sapiens) [compound 210]
Response: ″++″ (≥20% = ++)

Request: Note, next up: 71 (GILARIASV; listed as Homo sapiens) [compound 71]
Response: ″+++″ (≥50% = +++)

Request: Note, next up: 572 (ALADLIEKELSV; listed as Homo sapiens) [compound 572]
Response: ″+++″ (≥50% = +++)

* * *

TARGET UNDER TEST: HLA-A*02:01 (Homo sapiens, UniProt P04439, D140Y/D185E/D98H/E176V/E277Q/G131W/G231S/I119V/I121R/I166T/I218V/L300P/L318F/N151K/N90K/P208A/P217A/Q86G/Q94H/R138H/R169H/T345S)
EXPERIMENTAL PROTOCOL: MHC binding assay (UV-ligand exchange, ELISA of stabilized MHC complexes)
CONDITION SET: MHC class I binding score; binding to HLA-A*02:01 ranged by peptide exchange yield (UV-ligand exchange, ELISA)
ATTRIBUTE MEASURED: Peptide exchange

610 (LLAPTPYIIGV; listed as Homo sapiens) [compound 610] : ″+++″ (≥50% = +++)
489 (KMWEELPEVV; listed as Homo sapiens) [compound 489] : ″+++″ (≥50% = +++)
471 (YLYNNMIAKI; listed as Homo sapiens) [compound 471] : ″+++″ (≥50% = +++)

* * *

TARGET UNDER TEST: HLA-A*02:01 (Homo sapiens, UniProt P04439, D140Y/D185E/D98H/E176V/E277Q/G131W/G231S/I119V/I121R/I166T/I218V/L300P/L318F/N151K/N90K/P208A/P217A/Q86G/Q94H/R138H/R169H/T345S)
EXPERIMENTAL PROTOCOL: MHC binding assay (UV-ligand exchange, ELISA of stabilized MHC complexes)
CONDITION SET: MHC class I binding score; binding to HLA-A*02:01 ranged by peptide exchange yield (UV-ligand exchange, ELISA)
ATTRIBUTE MEASURED: Peptide exchange

Here are 5 substances together with their reported answers.
308 (SQYSGQLHEV; listed as Homo sapiens) [compound 308] : ″+++″ (≥50% = +++)
232 (ALLEAQDVELYL; listed as Homo sapiens) [compound 232] : ″++″ (≥20% = ++)
21 (VLDELDMEL; listed as Homo sapiens) [compound 21] : ″++″ (≥20% = ++)
525 (VLLEAGEGLVTI; listed as Homo sapiens) [compound 525] : ″+++″ (≥50% = +++)
177 (YLLPEEYTSTL; listed as Homo sapiens) [compound 177] : ″++++″ (≥75% = ++++)

Request: Look up Peptide exchange: 376 (AMFESSQNVLL; listed as Homo sapiens) [compound 376]
Response: ″++″ (≥20% = ++)

Request: Note, next up: 545 (LLADLLHNV; listed as Homo sapiens) [compound 545]
Response: ″+++″ (≥50% = +++)

Request: Note, next up: 106 (LLYDAVHIVSV; listed as Homo sapiens) [compound 106]
Response: ″+++″ (≥50% = +++)

Request: Note, next up: 576 (ILLNNSGQIKL; listed as Homo sapiens) [compound 576]
Response: ″++++″ (≥75% = ++++)

Request: Note, next up: 118 (KLIDNNINV; listed as Homo sapiens) [compound 118]
Response: ″+++″ (≥50% = +++)

Request: Note, next up: 136 (YLADPSNLFVV; listed as Homo sapiens) [compound 136]
Response: ″+++″ (≥50% = +++)

Request: Note, next up: 378 (ALGYFVPYV; listed as Homo sapiens) [compound 378]
Response: ″+++″ (≥50% = +++)

Request: Note, next up: 381 (FIDEAYVEV; listed as Homo sapiens) [compound 381]
Response: ″++″ (≥20% = ++)

* * *

TARGET UNDER TEST: HLA-A*02:01 (Homo sapiens, UniProt P04439, D140Y/D185E/D98H/E176V/E277Q/G131W/G231S/I119V/I121R/I166T/I218V/L300P/L318F/N151K/N90K/P208A/P217A/Q86G/Q94H/R138H/R169H/T345S)
EXPERIMENTAL PROTOCOL: MHC binding assay (UV-ligand exchange, ELISA of stabilized MHC complexes)
CONDITION SET: MHC class I binding score; binding to HLA-A*02:01 ranged by peptide exchange yield (UV-ligand exchange, ELISA)
ATTRIBUTE MEASURED: Peptide exchange

440 (ALADGVTMQV; listed as Homo sapiens) [compound 440] : ″++″ (≥20% = ++)
530 (VMYADIGGMDI; listed as Homo sapiens) [compound 530] : ″+++″ (≥50% = +++)
454 (KLPPPPPQA; listed as Homo sapiens) [compound 454] : ″+++″ (≥50% = +++)
191 (LLQEGQALEYV; listed as Homo sapiens) [compound 191] : ″++″ (≥20% = ++)

Request: Look up Peptide exchange: 393 (GLLDTQTSQVLTA; listed as Homo sapiens) [compound 393]
Response: ″++″ (≥20% = ++)

* * *

TARGET UNDER TEST: HLA-A*02:01 (Homo sapiens, UniProt P04439, D140Y/D185E/D98H/E176V/E277Q/G131W/G231S/I119V/I121R/I166T/I218V/L300P/L318F/N151K/N90K/P208A/P217A/Q86G/Q94H/R138H/R169H/T345S)
EXPERIMENTAL PROTOCOL: MHC binding assay (UV-ligand exchange, ELISA of stabilized MHC complexes)
CONDITION SET: MHC class I binding score; binding to HLA-A*02:01 ranged by peptide exchange yield (UV-ligand exchange, ELISA)
ATTRIBUTE MEASURED: Peptide exchange

Here are 4 substances together with their reported answers.
81 (FLFSQLQYL; listed as Homo sapiens) [compound 81] : ″++″ (≥20% = ++)
41 (SLMPHIPGL; listed as Homo sapiens) [compound 41] : ″+++″ (≥50% = +++)
432 (TLIEESAKV; listed as Homo sapiens) [compound 432] : ″++″ (≥20% = ++)
7 (SLVGLLLYL; listed as Homo sapiens) [compound 7] : ″++++″ (≥75% = ++++)

Request: Look up Peptide exchange: 281 (ILRESTEEL; listed as Homo sapiens) [compound 281]
Response: ″+++″ (≥50% = +++)

Request: Note, next up: 155 (RVANLHFPSV; listed as Homo sapiens) [compound 155]
Response: ″+++″ (≥50% = +++)

Request: Note, next up: 173 (LLDSASAGLYL; listed as Homo sapiens) [compound 173]
Response: ″+++″ (≥50% = +++)

Request: Note, next up: 189 (ALQRKLPYV; listed as Homo sapiens) [compound 189]
Response: ″+++″ (≥50% = +++)

Request: Note, next up: 109 (IILSILEQA; listed as Homo sapiens) [compound 109]
Response: ″++++″ (≥75% = ++++)

Data origin, for the record: patent US10472401B2
